System: Bacillus subtilis DB104 (SP-AmyQ fusion secretion)
assay-name: AmyQ secretion efficiency, weighted average sort bin (1 = best secretion, 10 = worst) (bin number (weighted average, 1-10)); higher = lower secretion efficiency
# reported AmyQ secretion efficiency; entries follow
property: AmyQ secretion efficiency

ordered_residues=MFKKHTKRKRRKFLLASAVLAKPIEAHTV experimental_system="Bacillus subtilis DB104 (SP-AmyQ fusion secretion)" measurement=7.89
ordered_residues=MKKRFSLIMMTGLLFGLTSPAFAASN experimental_system="Bacillus subtilis DB104 (SP-AmyQ fusion secretion)" measurement=2.36
ordered_residues=MNKPTKLFSTLALAAGMTLIAAAAGGAGTIHAQQP experimental_system="Bacillus subtilis DB104 (SP-AmyQ fusion secretion)" measurement=1.83
ordered_residues=MKKRLIGFLVLVPALIMSGITLAEANKK experimental_system="Bacillus subtilis DB104 (SP-AmyQ fusion secretion)" measurement=7.38
ordered_residues=MPYLKRVLLLLVTGLFMSLFGDTATASAQTG experimental_system="Bacillus subtilis DB104 (SP-AmyQ fusion secretion)" measurement=1.23
ordered_residues=MMKLLAAGIIGLLTVSIASPSFAAEK experimental_system="Bacillus subtilis DB104 (SP-AmyQ fusion secretion)" measurement=2.05
ordered_residues=MKLAKRVSALTPSTTLAITAKAARK experimental_system="Bacillus subtilis DB104 (SP-AmyQ fusion secretion)" measurement=7.54
ordered_residues=MRNLTKTSLLLAGLCTAAQMVFVTHASAADE experimental_system="Bacillus subtilis DB104 (SP-AmyQ fusion secretion)" measurement=2.81
ordered_residues=MKKRFFGPIILAFILFAGAIAKKK experimental_system="Bacillus subtilis DB104 (SP-AmyQ fusion secretion)" measurement=7.24
ordered_residues=MRIFKKTYSQQGQTFLIATVNVNTAHAAID experimental_system="Bacillus subtilis DB104 (SP-AmyQ fusion secretion)" measurement=8.8
ordered_residues=MKLSVKIRKVLTVAAAAMTAKMYATAKGN experimental_system="Bacillus subtilis DB104 (SP-AmyQ fusion secretion)" measurement=6.94
ordered_residues=MKKAFLVFLSVVLVTTVFLVKQQESVAQHKQL experimental_system="Bacillus subtilis DB104 (SP-AmyQ fusion secretion)" measurement=4.12
ordered_residues=MNLRKILLSSALSLGMLVSAAPVLNTSS experimental_system="Bacillus subtilis DB104 (SP-AmyQ fusion secretion)" measurement=5.87
ordered_residues=MKKQIITATTAVVLGSTLFAVGAASAQSI experimental_system="Bacillus subtilis DB104 (SP-AmyQ fusion secretion)" measurement=2.23
ordered_residues=MLKKIMNLNMMMALTLCPAIVGSLLFFTAPASAHVS experimental_system="Bacillus subtilis DB104 (SP-AmyQ fusion secretion)" measurement=2.77
ordered_residues=MKKQIITATTAVVLGSTLFAGAASYQSI experimental_system="Bacillus subtilis DB104 (SP-AmyQ fusion secretion)" measurement=6.33
ordered_residues=MKNMSCKLVVSVTLFFSFLTIGPLAHRQNS experimental_system="Bacillus subtilis DB104 (SP-AmyQ fusion secretion)" measurement=6.88
ordered_residues=MKKGIIRFLLVSFVLFFALSTGITGKQAAPA experimental_system="Bacillus subtilis DB104 (SP-AmyQ fusion secretion)" measurement=5.05
ordered_residues=MKRFLIGAGVAAVILSGWFIADHQKHSQEM experimental_system="Bacillus subtilis DB104 (SP-AmyQ fusion secretion)" measurement=5.36
ordered_residues=MKKQIITATTAVVLGSTLFAGACSAQSI experimental_system="Bacillus subtilis DB104 (SP-AmyQ fusion secretion)" measurement=2.49
ordered_residues=MNLRKILLSSALSLGMLVSAAPELATSS experimental_system="Bacillus subtilis DB104 (SP-AmyQ fusion secretion)" measurement=3.72
ordered_residues=MRKYTQIASILLSFLSVLSGGHHESKAFPV experimental_system="Bacillus subtilis DB104 (SP-AmyQ fusion secretion)" measurement=6.41
ordered_residues=MFNRLFRVCFLAALIMAFTLPNSVYPQKP experimental_system="Bacillus subtilis DB104 (SP-AmyQ fusion secretion)" measurement=7.22
ordered_residues=MLMSIALTLCPAIVGSLLFFTAPASAHVS experimental_system="Bacillus subtilis DB104 (SP-AmyQ fusion secretion)" measurement=4.17
ordered_residues=MLCVMMLLFSAIASFPVSAQNKDQ experimental_system="Bacillus subtilis DB104 (SP-AmyQ fusion secretion)" measurement=6.98
ordered_residues=MLCVMMLLFSAIASFPVSPQAKDQ experimental_system="Bacillus subtilis DB104 (SP-AmyQ fusion secretion)" measurement=6.39
ordered_residues=MAAQTDYKKQVVGILLSLAFVLFVFSCSERHE experimental_system="Bacillus subtilis DB104 (SP-AmyQ fusion secretion)" measurement=4.02
ordered_residues=MKKAAAVLLSLGLVFIFVFAAVHVAEAKTK experimental_system="Bacillus subtilis DB104 (SP-AmyQ fusion secretion)" measurement=2.59
